- assay target: UniProtKB P51449
- experiment summary: Jurkat reporter test (human IL-17 ROR response element luciferase, RORγt vector)
- Type: cell-based
- cond: test compound 3 μM, Jurkat cells; read-out: Luminescence level inhibitory rate at test compound 3 μM (%)
measured parameter: inhibition at 3 µM (%)
Field format: number, assumed %, no unit text.

Checklist item: inhibition at 3 µM tested on UniProtKB P51449, entry COc1ccc2c(c1)CCN(C(=O)Cc1ccc(OC)nc1)[C@H]2C(=O)Nc1ccc(C(C)(C)C)c(F)c1 [Example 32] , value? 103

Entry to check: COc1ccc2c(n1)CCN(C(=O)c1cc(O)no1)[C@H]2C(=O)Nc1ccc(C(C)(C)C)c(F)c1 [Example 77] 100

Entry to check: COc1ccc2c(c1)CCN(C(=O)CCCC(=O)O)[C@H]2C(=O)Nc1cc(F)c(C(C)(C)COCC2CC2)c(F)c1 [Example 161] 90

Entry to check: COc1ccc2c(n1)CCN(C(=O)c1cc(O)no1)[C@H]2C(=O)Nc1cc(F)c2c(c1)CCC2(C)C [Example 115] 102

Entry to check: COc1ccc2c(c1)CCN(C(=O)Cn1cnccc1=O)[C@H]2C(=O)Nc1ccc(C(C)(C)C)c(F)c1 [Example 29] 102

Entry to check: COc1ccc2c(c1)CCN(C(=O)CCCC(=O)O)[C@H]2C(=O)Nc1cc(F)c(C(C)(C)COCC(F)F)c(F)c1 [Example 162] 95

Entry to check: CCOc1ccc2c(c1)CCN(C(=O)Cc1cc(O)no1)C2C(=O)Nc1ccc(C(C)(C)C)c(F)c1 (centres unmarked) [Example 54] 101

Entry to check: COCc1ccc2c(c1)CCN(C(=O)Cc1cc(O)no1)[C@H]2C(=O)Nc1ccc(C(C)(C)C)c(F)c1 [Example 132] 104

Entry to check: COc1ccc2c(c1)CCN(C(=O)c1cc(O)no1)C2C(=O)Nc1cc(F)c(C(C)(C)C)c(F)c1 (centres unmarked) [Example 12] 99.3

Entry to check: COc1ccc2c(c1)CCN(C(=O)Cc1cc(O)no1)[C@H]2C(=O)Nc1cc(F)c(C(C)(C)COCC2CC2)c(F)c1 [Example 157] 94

Entry to check: COc1ccc2c(n1)CCN(C(=O)Cc1cc(O)no1)[C@H]2C(=O)Nc1ccc(C(C)(C)C)c(F)c1 [Example 78] 101

Entry to check: COc1ccc2c(c1)CCN(C(=O)Cc1cc(O)no1)[C@H]2C(=O)Nc1cc(F)c(C(C)(C)COCC(F)F)c(F)c1 [Example 159] 97

Entry to check: CCOc1ccc2c(n1)CCN(C(=O)Cc1cc(O)no1)[C@H]2C(=O)Nc1cc(F)c2c(c1)CCC2(C)C [Example 147] 101

Entry to check: CCOc1ccc2c(c1)CCN(C(=O)c1cc(O)no1)[C@H]2C(=O)Nc1cc(F)c(C(C)(C)COCC(F)F)c(F)c1 [Example 154] 98

----------
- assay target: RORγt (Homo sapiens, UniProt P51449)
- Sequence (P51449 1-497 isoform P51449-2, species assumed): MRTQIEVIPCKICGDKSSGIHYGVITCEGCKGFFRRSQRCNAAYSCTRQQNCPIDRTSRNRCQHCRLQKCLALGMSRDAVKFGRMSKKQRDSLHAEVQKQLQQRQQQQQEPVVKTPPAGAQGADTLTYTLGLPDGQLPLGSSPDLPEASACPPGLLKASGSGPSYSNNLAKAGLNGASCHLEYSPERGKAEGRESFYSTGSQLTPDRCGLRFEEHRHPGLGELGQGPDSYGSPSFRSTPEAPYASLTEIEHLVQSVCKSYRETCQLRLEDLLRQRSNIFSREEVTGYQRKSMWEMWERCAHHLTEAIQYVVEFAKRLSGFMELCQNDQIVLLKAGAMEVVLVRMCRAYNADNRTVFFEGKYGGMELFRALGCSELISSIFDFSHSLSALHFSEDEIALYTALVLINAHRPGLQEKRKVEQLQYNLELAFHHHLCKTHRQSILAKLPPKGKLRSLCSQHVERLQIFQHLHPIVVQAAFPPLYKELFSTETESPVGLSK
- experiment summary: RORγt binding test using fluorescent-labeled synthetic ligand (TR-FRET)
- cond: read-out: Binding inhibitory rate of fluorescent-labeled synthetic ligand to RORγt at test compound 1 μM (%)
Please provide measured inhibition at 1 µM for the entries that follow.
Field format: number, assumed %, no unit text.

GET /values?readout=inhibition at 1 µM&item= COc1ccc2c(n1)CCN(C(=O)CCCC(=O)O)[C@H]2C(=O)Nc1ccc([Si](C)(C)C)c(F)c1 101

Entry to check: CCOc1ccc2c(c1)CCN(C(=O)Cc1cc(O)no1)[C@H]2C(=O)Nc1cc(F)c2c(c1)CCC2(C)C 102

Entry to check: COCc1ccc2c(c1)CCN(C(=O)c1cc(O)no1)[C@H]2C(=O)Nc1cc(F)c2c(c1)CCC2(C)C 101

Entry to check: COCc1ccc2c(c1)CCN(C(=O)c1cc(O)no1)[C@H]2C(=O)Nc1ccc([Si](C)(C)C)c(F)c1 102

Entry to check: CCOc1ccc2c(c1)CCN(C(=O)Cc1cc(O)no1)[C@H]2C(=O)Nc1ccc(C(C)(C)C)c(F)c1 102

Entry to check: COCc1ccc2c(c1)CCN(C(=O)Cc1cc(O)no1)[C@H]2C(=O)Nc1ccc(C(C)(C)C)c(F)c1 102

Entry to check: C[Si](C)(C)c1c(F)cc(NC(=O)[C@H]2c3ccc(OC(F)F)cc3CCN2C(=O)CCC(=O)O)cc1F 101

Entry to check: COCC(C)(C)c1c(F)cc(NC(=O)[C@H]2c3ccc(OC)cc3CCN2C(=O)Cc2cc(O)no2)cc1F 102

Entry to check: COc1ccc2c(c1)CCN(C(=O)CC(F)(F)F)[C@H]2C(=O)Nc1cc(F)c(C(C)(C)C(=O)N2CCCC2)c(F)c1 101

Entry to check: CCOc1ccc2c(c1)CCN(C(=O)NCCC(=O)O)[C@H]2C(=O)Nc1cc(F)c([Si](C)(C)C)c(F)c1 102

Entry to check: COc1ccc2c(c1)CCN(C(=O)Cc1cc(O)no1)[C@H]2C(=O)Nc1cc(F)c(C(C)(C)COCC(F)F)c(F)c1 101

Entry to check: COCc1ccc2c(c1)CCN(C(=O)CCCC(=O)O)[C@H]2C(=O)Nc1ccc([Si](C)(C)C)c(F)c1 102

Entry to check: COc1ccc2c(n1)CCN(C(=O)c1cc(O)no1)[C@H]2C(=O)Nc1cc(F)c2c(c1)CCC2(C)C 101

Entry to check: COCc1ccc2c(n1)CCN(C(=O)Cc1cc(O)no1)[C@H]2C(=O)Nc1cc(F)c([Si](C)(C)C)c(F)c1 101
